- System Tested: T1, human chemokine (C-C motif) receptor 8 (CCR8) protein (human, UniProt P51685 1-355)
- T1 construct: whole, on cells; also called human CCR8
- Test Summary: cell binding, CCR8-expressing U2OS cells, curve fit
Reported Endpoint: Span
Just the number, please, no unit attached.

Solved cases below.
137-xi (antibody, V domains shown, also called 137D1H10; chimeric 137D1H10) VH: EVQLVESGGGLVQPKGSLKLSCTASGFTFNTYAMNWVRQAPGKGLEWVARIRSKANNYATYYADSVKDRFTISRDDSQRILYLQMNNLKAEDTAMYYCVRDRSRGEDYAMDYWGQGTSVTVSS VL: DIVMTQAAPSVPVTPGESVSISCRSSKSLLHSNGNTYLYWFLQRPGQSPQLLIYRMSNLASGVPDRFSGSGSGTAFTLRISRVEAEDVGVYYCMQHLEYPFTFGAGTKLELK :: 31300
137-H3L3 (antibody, V domains shown, Humanized 137D1H10) VH: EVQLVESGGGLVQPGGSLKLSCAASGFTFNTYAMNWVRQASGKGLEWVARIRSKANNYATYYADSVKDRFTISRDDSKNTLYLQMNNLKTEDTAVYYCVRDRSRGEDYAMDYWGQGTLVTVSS VL: DIVMTQSPLSLPVTPGEPVSISCRSSKSLLHSNANTYLYWFLQKPGQSPQLLIYRMSNLASGVPDRFSGSGSGTAFTLKISRVEAEDVGVYYCMQHLEYPFTFGQGTKLEIK :: 29800
137-H2L2 (antibody, V domains shown, Humanized 137D1H10) VH: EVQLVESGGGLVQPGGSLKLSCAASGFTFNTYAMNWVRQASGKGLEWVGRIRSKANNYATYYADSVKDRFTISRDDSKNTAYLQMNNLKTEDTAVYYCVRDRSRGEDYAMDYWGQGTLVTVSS VL: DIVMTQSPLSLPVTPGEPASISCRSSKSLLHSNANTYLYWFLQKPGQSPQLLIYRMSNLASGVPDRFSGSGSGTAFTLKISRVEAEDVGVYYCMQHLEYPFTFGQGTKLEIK :: 25300

Okay, next one:
// query For the binder shown here, 137-H3L2 (LM-108) (antibody, V domains shown, Humanized 137D1H10; Detected with anti-human IgG) VH: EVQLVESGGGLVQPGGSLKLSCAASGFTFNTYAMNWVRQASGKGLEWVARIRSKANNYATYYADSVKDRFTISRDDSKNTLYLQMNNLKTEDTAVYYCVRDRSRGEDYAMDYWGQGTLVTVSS VL: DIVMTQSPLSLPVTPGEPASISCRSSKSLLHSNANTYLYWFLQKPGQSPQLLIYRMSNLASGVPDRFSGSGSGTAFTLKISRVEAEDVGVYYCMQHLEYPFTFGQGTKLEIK , give the reported Span.
// result 30200
